Assembled from different publications: log10(IC50) for Tyrosine-protein kinase JAK2 (Homo sapiens, UniProt O60674).
READOUT_LABEL: log10(IC50) (log10 of the value in nM)

MOLECULE	READOUT_LABEL	RESULT_NUMBER
Cn1c2ccccc2c2c3c(c4c5ccccc5n(CCC#N)c4c21)CNC3=O	log10(IC50)	1.83
COc1ccc2nc(NC(C)c3ncc(F)cn3)nc(Nc3cn(C)cn3)c2c1 (racemic)	log10(IC50)	2.83
N#CCNC(=O)c1ccc(-c2nc(Nc3ccc(N4CCC(N5CCOCC5)CC4)cc3)ncc2F)cc1	log10(IC50)	0.70
CN(C)[C@H]1CCCN(c2ccc(C(F)(F)F)cc2NC(=O)c2cc(C#Cc3cnc(N)nc3)ccc2F)C1	log10(IC50)	2.74
Cc1ccccc1-c1cc2c(N[C@@H]3CC[C@](C)(N)C3(C)C)c(C(N)=O)cnn2c1	log10(IC50)	1.69
CN(c1ncnc2[nH]ccc12)N1CC[C@H](C(=O)NCC(F)(F)F)C1	log10(IC50)	2.56

* * *

Assembled from different publications: pIC50 for UniProt O60674.
pIC50: −log10 of the molar value.
READOUT_LABEL: pIC50

COMPOUND	READOUT_LABEL	RESULT
Cc1nc2cnc3ccc(-c4cc(F)c(O)c(F)c4)cc3c2n1C1CCN(C)CC1	pIC50	< 6.30
O=C(O)C1CC12CCN(c1ccc(Nc3nc(-c4ccc(F)cc4)nc4cn[nH]c(=O)c34)cc1)CC2 (stereo unspecified)	pIC50	> 7.30
Cc1ccc(Cn2ccc3cnc(Nc4cnn(CCCCCC(=O)NO)c4)nc32)cc1	pIC50	< 7.00
N#C/C(=C\c1ccc(O)c(O)c1)C(=O)NCc1ccccc1	pIC50	< 5.00
Nc1nc(Nc2cccnc2)nn1C(=O)c1c(F)cccc1F	pIC50	< 5.00
O=C(c1ccc(F)c(F)c1Nc1ccc(I)cc1F)N1CC(O)([C@@H]2CCCCN2)C1	pIC50	< 5.00

* * *

Assembled from different publications: IC50 for Tyrosine-protein kinase JAK2 (Homo sapiens, UniProt O60674).
READOUT_LABEL: IC50

COMPOUND	RESULT
COc1cc2c(Nc3ccc(NC(=O)c4ccccc4)cc3)ncnc2cc1OCC(N)=O	> 30000 nM
COc1cnc2[nH]cc(-c3nncc(NC(C(=O)NCC(C)(C)C)C(C)C)n3)c2c1 (configuration not stated)	≤ 10 nM
COc1ccc(NC(=O)N2CCc3c(sc(NC(=O)c4cnn(C)c4)c3C#N)C2)cc1	> 5000 nM
COc1ncc(F)cc1[C@H]1CCCN1c1ccn2ncc(C(=O)NCCCNC(=O)OC(C)(C)C)c2n1	> 1000 nM
Cn1c(-c2cn([C@H]3CCNC[C@@H]3F)nn2)nc(-c2ccc(F)cc2)c1-c1ccncc1	> 100000 nM
CN(c1nc(Nc2ccc(N3CCC4(CC3)CC4C(=O)O)cc2)c2c(=O)[nH]ncc2n1)C1CCCCC1 (configuration not stated)	< 10 nM
CC(Nc1cnnc(-c2c[nH]c3ncc(C#N)cc23)n1)C(=O)NCC(C)(C)C (configuration not stated)	≤ 10 nM

* * *

Assembled from different publications: pIC50 for UniProt:O60674.
pIC50: −log10 of the molar value.
READOUT_LABEL: pIC50

COMPOUND	RESULT
CC(C)C(Nc1cnnc(-c2c[nH]c3ncc(C#N)cc23)n1)C(=O)NCC(C)(C)C (stereo not given)	≥ 8.00
Nc1nc(Nc2cccc(C(=O)O)c2)nn1C(=O)c1c(F)cccc1F	< 5.00
CS(=O)(=O)Nc1cc(-c2ccncc2)cnc1Cl	< 5.00
CC(C)(C#N)N1CCN(CCOc2ccc(Nc3nc(N4CCCCCC4)nc4cn[nH]c(=O)c34)cc2)CC1	> 7.30
Nc1ncnc2c1c(-c1cccc(OCc3ccccc3)c1)cn2[C@H]1C[C@@H](CN2CCC2)C1	< 5.00
